Where do these numbers come from? They come from PubChem BioAssay (EPA / NIEHS).

assay: TOX21_p53_BLA_p5_viability: Viability Assessment in the Tox21 HCT-116 p53 Agonism Beta-lactamase Assay, Phase 5 (AID 2283600)
Records with an inconclusive call do not appear. Active and inactive are the calls of the source. The calls were made as follows: active = hit-call score of the fitted dose curve at least 0.9, where 1 is the maximum; inconclusive = response in the unintended direction; inactive = score below 0.9.
measurement label: outcome

>  <chem smiles>
FC(F)(F)c1ccc(Cl)c(Cl)c1

>  <measurement label>
outcome

>  <measurement>
inactive

$$$$
>  <chem smiles>
C[C@]12CC[C@@H]3c4ccc(O)cc4CC[C@H]3[C@@H]1CC[C@@H]2O

>  <measurement label>
outcome

>  <measurement>
inactive

$$$$
>  <chem smiles>
CC(C)COC(=O)c1ccccc1

>  <measurement label>
outcome

>  <measurement>
inactive

$$$$
>  <chem smiles>
Cc1cccc(O)c1

>  <measurement label>
outcome

>  <measurement>
inactive

$$$$
>  <chem smiles>
Cc1ccc(C(C)(C)O)cc1

>  <measurement label>
outcome

>  <measurement>
inactive

$$$$

Q. Identify outcome associated with the compound CCCCCCCC(=O)N(C)C
A. inactive

Q. Identify outcome associated with the compound CCCCN(CCO)CCO
A. inactive

Q. Identify outcome associated with the compound COc1ccccc1O
A. inactive

Q. Identify outcome associated with the compound NCCN1CCNCC1
A. inactive

Q. Identify outcome associated with the compound CCCCCCCCCCCCCCCCCC(=O)OCCCCCCCCCCCCCC(C)C
A. inactive

----------
Assay: ACEA_ER_80hr: ACEA Biosciences xCELLigence Real-Time Cell Analysis on Estrogen Receptor Agonism for Proliferation (AID 2282667)
Conditions: T47D proliferation, impedance (xCELLigence), 80 h
Description: ACEA_ER is a cell-based, single-readout assay that uses T47D, a human breast cell line, with measurements taken at 80 hours after chemical dosing in a 96-well plate, although TO2 (mc0.srcf) used a 384-well plate. Differences in plate size can be ignored given data normalization.ACEA_ER_80hr is one of two assay component(s) measured or calculated from the ACEA_ER assay. […]
Results filed as inconclusive are left out. Activity calls are given as the source filed them. Rule for the calls: active = hit-call score of the fitted dose curve at least 0.9, where 1 is the maximum; inconclusive = response in the unintended direction; inactive = score below 0.9.
Outcomes you can answer with include only these: y for active, n for inactive

Q. For this compound, state the assay outcome: O=C(O)C1=NN(c2ccc(S(=O)(=O)O)cc2)C(=O)C1
A. n

Q. For this compound, state the assay outcome: O=Cc1ccccc1O
A. y

----------
assay: ATG_XTT_Cytotoxicity: Cytotoxicity Assessment in the Attagene TRANS-FACTORIAL HepG2 Assay (AID 2283584)
Records with an inconclusive call do not appear. Active and inactive are the calls of the source. The calls were made as follows: active = hit-call score of the fitted dose curve at least 0.9, where 1 is the maximum; inconclusive = response in the unintended direction; inactive = score below 0.9.
measurement label: outcome

Consider the worked cases shown below.
>  <compound>
Cc1cccc(C)c1

>  <outcome>
inactive

$$$$
>  <compound>
CC(C)Cc1ccccc1

>  <outcome>
inactive

$$$$
>  <compound>
O=C(O)C1=NN(c2ccc(S(=O)(=O)O)cc2)C(=O)C1

>  <outcome>
inactive

$$$$
>  <compound>
NC(N)=S

>  <outcome>
inactive

$$$$
>  <compound>
COc1ccc(C(C)=O)cc1

>  <outcome>
inactive

$$$$

Next:
Q. Identify outcome associated with the compound COc1ccccc1O
A. inactive

----------
read-out: Human Leukocyte Antigen - DR isotype (HLADR), HLA-DRA (gene 3122); assay: BSK_BE3C_HLADR: BioMAP Diversity Plus: BE3C Assay for Human Leukocyte Antigen - DR isotype (HLADR) Biomarker Activity (AID 2283032); settings: primary human bronchial epithelial cells; actives raise or lower the signal
Calls of active or inactive are those of the source. The calls were made as follows: active = hit-call score of the fitted dose curve at least 0.9, where 1 is the maximum; inactive = score below 0.9.
Outcomes you can answer with include only these: active, inactive

Below are worked cases with known answers.
>  <molecule>
COc1ccccc1NC(=O)CC(C)=O

>  <assigned category>
inactive

$$$$
>  <molecule>
CC(C)CCCC(C)(C)O

>  <assigned category>
inactive

$$$$
>  <molecule>
CC(=O)OC(C)(C)C1CC=C(C)CC1 (stereo not drawn)

>  <assigned category>
active

$$$$
>  <molecule>
CCCCCCCC1CCCC1=O (stereo not drawn)

>  <assigned category>
active

$$$$
>  <molecule>
CCn1cc(C(=O)O)c(=O)c2ccc(C)nc21

>  <assigned category>
inactive

$$$$
>  <molecule>
CC(=O)c1ccc(C)cc1

>  <assigned category>
inactive

$$$$

Q. For this molecule, state the assay outcome: O=C(c1ccc(OCCN2CCCCC2)cc1)c1c(-c2ccc(O)cc2)sc2cc(O)ccc12
A. active

Q. For this molecule, state the assay outcome: CC(C)(C)c1cccc(O)c1
A. inactive

----------
experiment: ATG_TGFb_CIS: Attagene CIS-FACTORIAL HepG2 Assay for human Transforming Growth Factor (TGF) (AID 2282967); details: HepG2 Attagene CIS TGFb reporter, mRNA transcription; actives raise or lower the signal
The source made the active and inactive calls. How the source made its calls: active means hit-call score of the fitted dose curve at least 0.9, where 1 is the maximum; inactive means score below 0.9.
Outcomes you can answer with include only these: True for active, False for inactive

Below are worked cases with known answers.
>  <compound>
COc1ccccc1NC(=O)CC(C)=O

>  <assigned category>
False

$$$$
>  <compound>
C1CCCNCC1

>  <assigned category>
False

$$$$
>  <compound>
C=CC(C)CCCC(C)(C)O (stereo not drawn)

>  <assigned category>
False

$$$$

Q. For this compound, state the assay outcome: C=CCOC(=O)/C=C\C(=O)OCC=C
A. False

Q. For this compound, state the assay outcome: O=C(C=Cc1ccccc1)OCCCc1ccccc1
A. False

Q. For this compound, state the assay outcome: CC(=O)OC/C=C(C)/C=C/C=C(C)/C=C/C1=C(C)CCCC1(C)C
A. True

Q. For this compound, state the assay outcome: CCCCCCCCCCOC(=O)c1ccccc1C(=O)OCCCCCCCC
A. False

Q. For this compound, state the assay outcome: CCc1cccc(O)c1
A. False

Q. For this compound, state the assay outcome: [Cl][Dy]([Cl])[Cl]
A. False

Q. For this compound, state the assay outcome: CCCCCCOc1ccc(O)cc1
A. False

Q. For this compound, state the assay outcome: CC(O)CNCC(C)O (stereo not drawn)
A. False

----------
read-out: E-selectin (Homo sapiens); assay: BSK_3C_Eselectin: BioMAP Diversity Plus: 3C Assay for Eselectin Biomarker Activity (AID 2283015); conditions: primary human endothelial cells (HUVEC); actives raise or lower the signal
Calls of active or inactive are those of the source. Rule for the calls: active = hit-call score of the fitted dose curve at least 0.9, where 1 is the maximum; inactive = score below 0.9.
measurement label: AC50

>  <compound>
CC(=O)OC(C)(C)C1CC=C(C)CC1 (stereo not drawn)

>  <measurement label>
AC50

>  <measurement>
31 µM (active)

$$$$
>  <compound>
CCCO[Si](OCCC)(OCCC)OCCC

>  <measurement label>
AC50

>  <measurement>
inactive

$$$$
>  <compound>
COC(=O)c1ccc(C(=O)OC)cc1

>  <measurement label>
AC50

>  <measurement>
inactive

$$$$

----------
Target: X-box-binding protein 1 (Homo sapiens)
Assay: ATG_Xbp1_CIS: Attagene CIS-FACTORIAL HepG2 Assay for human X-box Binding Protein 1 (XBP1) (AID 2282972)
Conditions: HepG2 XBP1 cis-element reporter, Attagene multiplex; actives raise or lower the signal
Protocol: ATG_CIS is a cell-based, multiplexed-readout assay that uses HepG2, a human liver cell line, with measurements taken at 24 hours after chemical dosing in a 24-well plate.ATG_Xbp1_CIS is one of 52 assay component(s) measured or calculated from the ATG_CIS assay. […] This assay endpoint, ATG_Xbp1_CIS, was analyzed with bidirectional fitting relative to DMSO as the negative control and baseline of activity. […]
The source made the active and inactive calls. Rule for the calls: active = hit-call score of the fitted dose curve at least 0.9, where 1 is the maximum; inactive = score below 0.9.
Outcomes you can answer with include only these: active, inactive

Below are worked cases with known answers.
>  <molecule>
CC(C)(O)C(=O)c1ccc(OCCO)cc1

>  <target system>
X-box-binding protein 1 (Homo sapiens)

>  <assigned category>
inactive

$$$$
>  <molecule>
CC(C)(C)c1cc(CCC(=O)OCCSCCOC(=O)CCc2cc(C(C)(C)C)c(O)c(C(C)(C)C)c2)cc(C(C)(C)C)c1O

>  <target system>
X-box-binding protein 1 (Homo sapiens)

>  <assigned category>
inactive

$$$$
>  <molecule>
O=C(O)c1ccc(C(=O)O)c(C(=O)O)c1

>  <target system>
X-box-binding protein 1 (Homo sapiens)

>  <assigned category>
inactive

$$$$
>  <molecule>
Nc1cc([N+](=O)[O-])ccc1C(=O)O

>  <target system>
X-box-binding protein 1 (Homo sapiens)

>  <assigned category>
inactive

$$$$
>  <molecule>
O=c1cc(-c2ccc(O)cc2)oc2cc(O)cc(O)c12

>  <target system>
X-box-binding protein 1 (Homo sapiens)

>  <assigned category>
active

$$$$

Q. For this molecule, state the assay outcome: Cc1cc(O)c(C)c(C)c1O
A. inactive

Q. For this molecule, state the assay outcome: COc1ccc2[nH]cc(CCNC(C)=O)c2c1
A. inactive

Q. For this molecule, state the assay outcome: CCCCCCCCOC(=O)c1ccc(O)cc1
A. inactive

Q. For this molecule, state the assay outcome: CCCO
A. inactive

Q. For this molecule, state the assay outcome: C=CCCCCCCCCC(=O)OCC
A. inactive

Q. For this molecule, state the assay outcome: NC(N)=S
A. inactive

Q. For this molecule, state the assay outcome: COC(=O)c1ccc(C(=O)OC)cc1
A. inactive
